- experimentalDetails: rat intestinal IEC-6 viability loss – cell-based, luminescence, cytotoxicity control, confirmation (AID 1907)
- runParameters: IEC-6 rat intestinal epithelial viability, at 5 µM
Hit rate of the full screen: of about 1,900 compounds, about 1,200 (63%) were called active. Rule as the data show it: active = inhibition above about 22%; inactive = the rest. The set was probably picked from earlier hits. Not all results are given here.
Assign a class; possible classes are active, inactive

The following compounds have reported results that may help.
>>> label("CC(=O)NC1=NN(C(C)=O)C(C)(c2ccc(Cl)s2)S1 (stereo unspecified)")
"active"
>>> label("COc1ccc(C2=NOC(C(=O)NCc3ccco3)C2)cc1OC (stereo unspecified)")
"active"
>>> label("CC(C)OC(=O)CN1C(=O)C(=O)c2ccccc21")
"inactive"
>>> label("CCCOn1c(-n2nc(C)cc2C)nc2ccccc2c1=O")
"inactive"
>>> label("CSc1nnc2ccc(-c3ccc(C)cc3)nn12")
"active"

Would you kindly look at the next entry?
Query: Answer briefly: the call reported for Cc1nc(Nc2ccc3c(c2)OCCO3)c2nnn(Cc3ccccc3Cl)c2n1 in this assay.
Reply: inactive
